System: MOLT-4 leukemia
Experiment: NCI tumour cell line growth inhibition, 48 h
Each entry below carries its recorded TGI.
Parameter Measured: TGI

[[record]]
compound = "CC(=O)c1c(C)nc(SSc2nc(C)c(C(C)=O)c(-c3ccc(Cl)cc3)c2C#N)c(C#N)c1-c1ccc(Cl)cc1"
test_result = "> 150 µg/mL"

[[record]]
compound = "CCNc1cc(-c2cccc(OC(F)(F)F)c2)nc2ccc(N3CCCC3)cc12"
test_result = "7.08 µM"

[[record]]
compound = "Cc1nn[n-]n1.N.N.N.N.N.[Cl-].[Co+3]"
test_result = "> 100 µM"

[[record]]
compound = "O=[N+]([O-])c1ccc2c(c1)N([O-])C1(CCCCC1)[N+]2=O"
test_result = "51.9 µM"

[[record]]
compound = "O=C(NOC[C@H](O)CO)c1ccc(F)c(F)c1Nc1ccc(I)cc1F"
test_result = "> 100 µM"

[[record]]
compound = "Cc1nc(CC#N)n[nH]1"
test_result = "> 100 µM"

[[record]]
compound = "COc1ccc(-n2[nH]nc(C(N)=O)c2=O)cc1"
test_result = "> 100 µM"

[[record]]
compound = "COc1ccc(C(=O)O[C@H]2[C@@H]3C=CO[C@@H](OC4OC(CO)C(O)C(O)C4O)[C@@H]3[C@@]3(CO)O[C@@H]23)cc1O (stereo partly specified)"
test_result = "> 100 µM"

[[record]]
compound = "COc1c(/C=C/C(C)(C)O)cc(C2CC(=O)c3c(O)cc(O)cc3O2)cc1CC=C(C)C (stereo unspecified)"
test_result = "35 µM"

[[record]]
compound = "COc1cc2ncn(-c3cc(OCc4ccccc4C(F)(F)F)c(C(=O)N(C)C)s3)c2cc1OC"
test_result = "> 25 µM"

[[record]]
compound = "Clc1ccc(C(c2ccccc2Cl)C(Cl)Cl)cc1 (stereo unspecified)"
test_result = "41.1 µM"

[[record]]
compound = "CCOC(=O)c1[nH]c(-c2[nH]c(-c3[nH]c(-c4[nH]c(C(=O)OCC)c(C)c4C(=O)OCC)c(C(=O)OCC)c3C)c(C)c2C(=O)OCC)c(C(=O)OCC)c1C"
test_result = "> 100 µM"

[[record]]
compound = "CC(C)c1c(-c2ccccc2)nc2c(C#N)c[nH]n2c1=O"
test_result = "> 100 µM"

[[record]]
compound = "Cc1ccc(SC2C(=O)C3CC(OCc4ccccc4)C2(C)C3(C)C)cc1 (stereo unspecified)"
test_result = "> 100 µM"

[[record]]
compound = "Cn1c2ccccc2c2c3c(c4c5ccccc5n(C)c4c21)C(=O)NC3=O"
test_result = "> 100 µM"

[[record]]
compound = "S=c1snc2n1CCN2"
test_result = "> 100 µM"

[[record]]
compound = "O=C1c2cc(Cl)ccc2NC(=NC2CCCC2)C2CSCN12 (stereo unspecified)"
test_result = "> 100 µM"

[[record]]
compound = "COc1cc(C(C)O)c(S(=O)(=O)CC(C)O)nn1 (stereo unspecified)"
test_result = "> 100 µM"

[[record]]
compound = "COc1ccc(C2OC(=O)c3ccc4ccccc4c32)c(C)c1 (stereo unspecified)"
test_result = "> 39.8 µM"

[[record]]
compound = "COc1ccc(NC(=O)CC2SC(=Nc3ccccc3C)NC2=O)c([N+](=O)[O-])c1 (stereo unspecified)"
test_result = "> 100 µM"

[[record]]
compound = "CS(=O)(=O)OCCN(CCOS(C)(=O)=O)c1ccc(C=Nc2cccc(Cl)c2)cc1"
test_result = "1.31 µM"

